Target: SRMS (human) (UniProt Q9H3Y6)
Sequence (Q9H3Y6 whole entry, looked up): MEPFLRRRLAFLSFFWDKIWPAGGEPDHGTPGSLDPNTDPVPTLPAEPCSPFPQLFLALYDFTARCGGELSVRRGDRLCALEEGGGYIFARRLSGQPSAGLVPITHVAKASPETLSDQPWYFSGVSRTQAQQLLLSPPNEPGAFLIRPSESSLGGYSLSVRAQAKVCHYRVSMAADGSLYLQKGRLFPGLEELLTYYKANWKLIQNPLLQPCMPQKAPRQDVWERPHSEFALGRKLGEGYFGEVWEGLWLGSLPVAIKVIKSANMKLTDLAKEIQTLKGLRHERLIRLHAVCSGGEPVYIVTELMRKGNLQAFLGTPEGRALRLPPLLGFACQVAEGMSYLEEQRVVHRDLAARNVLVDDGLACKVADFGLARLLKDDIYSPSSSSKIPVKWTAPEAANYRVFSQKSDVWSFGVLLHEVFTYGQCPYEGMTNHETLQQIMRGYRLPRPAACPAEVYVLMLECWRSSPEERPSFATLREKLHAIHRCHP
Assay: KINOMEscan competition binding
Settings: compound 10.0 µM
readout type: kinase still bound, per cent of control (%)
Your answer is read as %, so omit the unit and give the number.

{"compound structure": "COc1cc(N2CCN(C)CC2)ccc1Nc1ncc2c(n1)Nc1ccccc1NC2=O", "kinase still bound, per cent of control / %": 0}
{"compound structure": "CN1CCN(c2ccc(C(=O)Nc3ncc4c(n3)N(C)c3ccccc3C(=O)N4C)cc2)CC1", "kinase still bound, per cent of control / %": 96}
{"compound structure": "CN1C(=O)c2ccccc2N(C)c2nc(Nc3ccc(N4CCC(O)CC4)cc3)ncc21", "kinase still bound, per cent of control / %": 87}
{"compound structure": "COc1cc(N2CCN(C)CC2)ccc1Nc1ncc2c(n1)N(C)c1ccccc1N(C)C2=O", "kinase still bound, per cent of control / %": 100}
{"compound structure": "O=C1NC(=O)/C(=C/c2c[nH]c(=O)c(-c3ccc(N4CCNCC4)nc3)c2)S1", "kinase still bound, per cent of control / %": 86}
{"compound structure": "CN1C(=O)c2ccccc2N(C)c2nc(NS(=O)(=O)c3ccc(N)cc3)ncc21", "kinase still bound, per cent of control / %": 84}
{"compound structure": "COc1cc(N2CCN(C)CC2)ccc1Nc1ncc2c(n1)N(C)c1ccccc1C(=O)N2", "kinase still bound, per cent of control / %": 18}
{"compound structure": "COc1cc(N2CCC(O)CC2)ccc1Nc1ncc2c(n1)N1CCc3cccc(c31)C(=O)N2C", "kinase still bound, per cent of control / %": 87}

Prompt: State its kinase still bound, per cent of control: N=C1NC(=O)/C(=C/c2ccc(-c3ccc(C(N)=O)cc3O)o2)S1
Completion: 33

Prompt: Determine its reported kinase still bound, per cent of control: COc1cc(N2CCN(C)CC2)ccc1Nc1ncc2c(n1)N(C)c1sccc1C(=O)N2C
Completion: 76

###

Biological target: EPHA3 (human)
Experiment: KINOMEscan competition binding
Conditions: compound 10.0 µM
readout type: kinase still bound, per cent of control (%)
Unit % implied. Number only.

// known answers, use as guide
{"compound structure": "CN1C(=O)c2ccccc2N(C)c2nc(Nc3ccc(N4CCC(O)CC4)cc3)ncc21", "unit descriptor": "%", "meas value": 83}
{"compound structure": "O=C1NC(=S)S/C1=C\\c1ccc(-c2cncc3ccccc23)o1", "unit descriptor": "%", "meas value": 17}
{"compound structure": "COc1cc(N2CCC(O)CC2)ccc1Nc1ncc2c(n1)N1CCc3cccc(c31)C(=O)N2C", "unit descriptor": "%", "meas value": 72}
{"compound structure": "O=C1NC(=O)/C(=C/c2c[nH]c(=O)c(-c3ccc(N4CCNCC4)nc3)c2)S1", "unit descriptor": "%", "meas value": 67}
{"compound structure": "COc1cc(N2CCN(C)CC2)ccc1Nc1ncc2c(n1)N(C)c1sccc1C(=O)N2C", "unit descriptor": "%", "meas value": 71}
{"compound structure": "N=C1NC(=O)/C(=C/c2ccc(-c3cncc4ccccc34)o2)S1", "unit descriptor": "%", "meas value": 13}
{"compound structure": "Cc1cn(-c2cc(NC(=O)c3cccc4cc(-c5ccc(/C=C6\\SC(=N)NC6=O)o5)ccc34)cc(C(F)(F)F)c2)cn1", "unit descriptor": "%", "meas value": 32}
{"compound structure": "CN1CCN(c2ccc(C(=O)Nc3ncc4c(n3)N(C)c3ccccc3C(=O)N4C)cc2)CC1", "unit descriptor": "%", "meas value": 100}

Prompt: For the compound CN1C(=O)c2ccccc2N(C)c2nc(NS(=O)(=O)c3ccc(N)cc3)ncc21 , give its measured kinase still bound, per cent of control value.
Completion: 97

Prompt: Tell me kinase still bound, per cent of control reported for COc1cc(N2CCN(C)CC2)ccc1Nc1ncc2c(n1)Nc1ccccc1NC2=O
Completion: 61

Prompt: Write down kinase still bound, per cent of control measured for item COc1cc(N2CCN(C)CC2)ccc1Nc1ncc2c(n1)N(C)c1ccccc1N(C)C2=O
Completion: 81

###

Molecular target: RIOK2 (human)
Assay: KINOMEscan competition binding
Details: compound 10.0 µM
kinase still bound, per cent of control for assorted compounds
Record the value in %, omitting the unit from your answer.

{"compound": "CN1C(=O)c2ccccc2N(C)c2nc(NS(=O)(=O)c3ccc(N)cc3)ncc21", "measured target": "RIOK2 (human)", "kinase still bound, per cent of control [%]": 71}
{"compound": "O=C1NC(=O)/C(=C/c2c[nH]c(=O)c(-c3ccc(N4CCNCC4)nc3)c2)S1", "measured target": "RIOK2 (human)", "kinase still bound, per cent of control [%]": 66}

Prompt: # return recorded kinase still bound, per cent of control for entry N=C1NC(=O)/C(=C/c2ccc(-c3cccc4cc[nH]c34)o2)S1
Completion: 5.5

Prompt: Please give the documented kinase still bound, per cent of control of COc1cc(N2CCN(C)CC2)ccc1Nc1ncc2c(n1)Nc1ccccc1NC2=O
Completion: 43

###

Target: UniProt Q12851
Sequence (Q12851 whole entry, looked up): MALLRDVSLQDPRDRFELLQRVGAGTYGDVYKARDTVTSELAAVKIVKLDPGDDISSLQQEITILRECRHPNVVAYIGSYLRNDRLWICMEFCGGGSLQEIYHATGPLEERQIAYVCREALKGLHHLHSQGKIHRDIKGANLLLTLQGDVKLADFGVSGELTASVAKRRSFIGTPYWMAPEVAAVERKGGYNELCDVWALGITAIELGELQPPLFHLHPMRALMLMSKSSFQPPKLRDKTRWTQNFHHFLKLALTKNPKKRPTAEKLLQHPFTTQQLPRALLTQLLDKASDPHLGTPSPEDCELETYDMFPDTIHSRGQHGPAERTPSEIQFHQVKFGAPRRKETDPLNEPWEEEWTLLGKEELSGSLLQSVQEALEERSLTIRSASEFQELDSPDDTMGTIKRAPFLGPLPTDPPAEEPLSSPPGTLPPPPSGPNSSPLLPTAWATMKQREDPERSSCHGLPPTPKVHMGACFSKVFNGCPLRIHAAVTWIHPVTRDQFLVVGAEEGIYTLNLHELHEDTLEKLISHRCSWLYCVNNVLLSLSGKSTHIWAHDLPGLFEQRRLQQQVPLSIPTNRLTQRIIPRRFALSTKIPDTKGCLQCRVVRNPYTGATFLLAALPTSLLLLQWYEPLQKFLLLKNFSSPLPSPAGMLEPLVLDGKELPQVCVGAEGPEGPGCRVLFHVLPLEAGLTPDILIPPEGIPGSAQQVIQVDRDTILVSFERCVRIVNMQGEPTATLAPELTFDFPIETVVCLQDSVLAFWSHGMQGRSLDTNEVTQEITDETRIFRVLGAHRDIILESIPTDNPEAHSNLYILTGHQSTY
Assay: KINOMEscan competition binding
Conditions: compound 10.0 µM
readout type: kinase still bound, per cent of control (%)
Please respond with the number in % and leave the unit unwritten.

Past entries and their recorded results:
{"compound structure": "CN1C(=O)[C@H]2CCC[C@H]2N(C2CCCC2)c2nc(Nc3ccc(C(N)=O)cc3)ncc21", "kinase still bound, per cent of control / %": 13}
{"compound structure": "CN1C(=O)c2ccccc2N(C)c2nc(NS(=O)(=O)c3ccc(N)cc3)ncc21", "kinase still bound, per cent of control / %": 80}
{"compound structure": "CN1C(=O)c2ccccc2N(C)c2nc(Nc3ccc(N4CCC(O)CC4)cc3)ncc21", "kinase still bound, per cent of control / %": 80}
{"compound structure": "COc1cc(N2CCN(C)CC2)ccc1Nc1ncc2c(n1)N(C)c1ccccc1N(C)C2=O", "kinase still bound, per cent of control / %": 100}
{"compound structure": "N=C1NC(=O)/C(=C/c2ccc(-c3ccc4c(C(=O)Nc5ccc(N6CCNCC6)cc5)cccc4c3)o2)S1", "kinase still bound, per cent of control / %": 26}

Prompt: Provide measured kinase still bound, per cent of control value, entry: CS(=O)(=O)Nc1ccc(-c2cncc(/C=C3\SC(=N)NC3=O)c2)cc1
Completion: 5.8

Prompt: Complete the entry with kinase still bound, per cent of control for CS(=O)(=O)Nc1ccc(-c2cc(/C=C3\SC(=N)NC3=O)c[nH]c2=O)cc1
Completion: 12

Prompt: Retrieve kinase still bound, per cent of control measured for CN1CCN(c2ccc(C(=O)Nc3ncc4c(n3)N(C)c3ccccc3C(=O)N4C)cc2)CC1 and print it.
Completion: 100

Prompt: For N=C1NC(=O)/C(=C/c2ccc(-c3cnc4ccccc4c3)o2)S1 , write its kinase still bound, per cent of control.
Completion: 20

###

Biological target: UniProt Q16539
Sequence (Q16539 whole entry, looked up): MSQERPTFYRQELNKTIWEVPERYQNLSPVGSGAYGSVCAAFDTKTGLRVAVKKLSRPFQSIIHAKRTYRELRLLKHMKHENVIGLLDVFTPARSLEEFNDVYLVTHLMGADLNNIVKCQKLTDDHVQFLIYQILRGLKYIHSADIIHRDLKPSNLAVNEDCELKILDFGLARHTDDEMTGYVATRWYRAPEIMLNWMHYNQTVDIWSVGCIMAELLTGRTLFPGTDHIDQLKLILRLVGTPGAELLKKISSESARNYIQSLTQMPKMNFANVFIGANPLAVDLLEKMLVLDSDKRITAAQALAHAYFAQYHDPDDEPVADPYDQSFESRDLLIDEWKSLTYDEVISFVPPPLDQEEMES
Test: KINOMEscan competition binding
Conditions: compound 10.0 µM
Rule for this label: y means kinase still bound, per cent of control is less than 30%; n means kinase still bound, per cent of control is at least 30%.

Use these answered entries as a reference point.
{"compound structure": "CSC1=NC(=O)/C(=C/c2ccc(-c3ccc(S(N)(=O)=O)cc3)o2)S1", "assigned label": "y"}
{"compound structure": "NS(=O)(=O)c1ccc(-c2ccc(/C=C3\\SC(=S)N(CC(=O)O)C3=O)o2)cc1", "assigned label": "y"}
{"compound structure": "O=C1NC(=S)S/C1=C\\c1ccc(-c2cccc3ccccc23)o1", "assigned label": "n"}

Prompt: Is it true that kinase still bound, per cent of control reported for COc1cc(N2CCN(C)CC2)ccc1Nc1ncc2c(n1)N(C)c1sccc1C(=O)N2C is less than 30%?
Completion: n

Prompt: Strictly below 30% in kinase still bound, per cent of control? COc1cc(N2CCN(C)CC2)ccc1Nc1ncc2c(n1)Nc1ccccc1NC2=O
Completion: n

###

Below is a list of entries, each paired with its recorded kinase still bound, per cent of control value.
Molecular target: STK3 (human) (UniProt Q13188)
Sequence (Q13188 whole entry, looked up): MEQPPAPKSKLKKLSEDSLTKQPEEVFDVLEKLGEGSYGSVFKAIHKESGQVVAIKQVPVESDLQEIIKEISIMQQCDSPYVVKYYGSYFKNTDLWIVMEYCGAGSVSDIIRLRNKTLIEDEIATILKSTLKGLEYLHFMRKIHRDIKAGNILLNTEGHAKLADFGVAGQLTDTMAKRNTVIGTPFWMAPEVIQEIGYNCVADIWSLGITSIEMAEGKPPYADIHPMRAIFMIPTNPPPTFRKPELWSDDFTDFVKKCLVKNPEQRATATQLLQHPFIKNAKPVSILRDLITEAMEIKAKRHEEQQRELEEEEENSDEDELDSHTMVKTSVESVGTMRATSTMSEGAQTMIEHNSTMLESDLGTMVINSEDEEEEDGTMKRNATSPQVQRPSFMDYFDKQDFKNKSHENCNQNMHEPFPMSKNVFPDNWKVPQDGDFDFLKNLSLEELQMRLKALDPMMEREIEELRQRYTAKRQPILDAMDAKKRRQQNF
Assay: KINOMEscan competition binding
Conditions: compound 10.0 µM
// note: answer is a bare numeric in %

Recorded kinase still bound, per cent of control, per entry:
{"compound structure": "CS(=O)(=O)Nc1ccc(-c2cc(/C=C3\\SC(=N)NC3=O)c[nH]c2=O)cc1", "meas value": 15}
{"compound structure": "COc1cc(N2CCN(C)CC2)ccc1Nc1ncc2c(n1)N(C)c1ccccc1N(C)C2=O", "meas value": 98}
{"compound structure": "COc1cc(N2CCC(O)CC2)ccc1Nc1ncc2c(n1)N1CCc3cccc(c31)C(=O)N2C", "meas value": 84}
{"compound structure": "CN1C(=O)c2ccccc2N(C)c2nc(NS(=O)(=O)c3ccc(N)cc3)ncc21", "meas value": 87}

Prompt: Please indicate kinase still bound, per cent of control recorded for O=C1NC(=O)/C(=C/c2c[nH]c(=O)c(-c3ccc(N4CCNCC4)nc3)c2)S1
Completion: 90

Prompt: Please list kinase still bound, per cent of control recorded for the compound CN1CCN(c2ccc(C(=O)Nc3ncc4c(n3)N(C)c3ccccc3C(=O)N4C)cc2)CC1
Completion: 82
